Every entry's value here was drawn from patent US11548870B2.

# tested_on: Helios (Homo sapiens, UniProt Q96SW2+Q9UKS7)
# Construct: fluorescently labelled antibodies against Helios and Ikaros; endogenous in cells; host or cells: Jurkat cells
# Sequence (Q9UKS7 whole entry): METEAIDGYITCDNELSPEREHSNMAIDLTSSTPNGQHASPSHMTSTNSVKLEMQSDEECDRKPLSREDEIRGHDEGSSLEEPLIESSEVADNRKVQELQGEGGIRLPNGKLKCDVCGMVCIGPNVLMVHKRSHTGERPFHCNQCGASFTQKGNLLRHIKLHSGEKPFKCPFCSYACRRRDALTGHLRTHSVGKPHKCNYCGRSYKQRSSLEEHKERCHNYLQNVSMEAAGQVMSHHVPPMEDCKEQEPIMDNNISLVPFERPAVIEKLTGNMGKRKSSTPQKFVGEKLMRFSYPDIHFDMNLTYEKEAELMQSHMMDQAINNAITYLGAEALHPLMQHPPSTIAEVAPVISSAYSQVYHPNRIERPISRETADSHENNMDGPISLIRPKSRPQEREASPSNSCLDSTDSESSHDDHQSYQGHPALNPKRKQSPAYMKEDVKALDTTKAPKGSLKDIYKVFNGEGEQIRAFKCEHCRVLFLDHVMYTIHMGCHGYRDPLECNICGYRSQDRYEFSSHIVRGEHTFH
# Sequence (Q96SW2 whole entry): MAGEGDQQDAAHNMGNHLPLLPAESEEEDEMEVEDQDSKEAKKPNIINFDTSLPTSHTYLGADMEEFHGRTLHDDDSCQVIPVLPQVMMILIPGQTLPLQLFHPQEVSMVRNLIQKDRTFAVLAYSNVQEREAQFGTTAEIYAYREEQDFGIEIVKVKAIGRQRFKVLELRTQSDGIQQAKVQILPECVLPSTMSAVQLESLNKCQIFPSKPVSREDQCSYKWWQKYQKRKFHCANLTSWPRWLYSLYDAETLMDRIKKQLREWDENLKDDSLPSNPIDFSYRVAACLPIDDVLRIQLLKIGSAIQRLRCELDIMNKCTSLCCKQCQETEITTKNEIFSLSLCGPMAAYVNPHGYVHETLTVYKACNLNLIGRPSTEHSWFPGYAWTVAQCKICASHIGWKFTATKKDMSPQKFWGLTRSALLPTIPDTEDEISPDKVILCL
# Sequence (Q16531 whole entry partner): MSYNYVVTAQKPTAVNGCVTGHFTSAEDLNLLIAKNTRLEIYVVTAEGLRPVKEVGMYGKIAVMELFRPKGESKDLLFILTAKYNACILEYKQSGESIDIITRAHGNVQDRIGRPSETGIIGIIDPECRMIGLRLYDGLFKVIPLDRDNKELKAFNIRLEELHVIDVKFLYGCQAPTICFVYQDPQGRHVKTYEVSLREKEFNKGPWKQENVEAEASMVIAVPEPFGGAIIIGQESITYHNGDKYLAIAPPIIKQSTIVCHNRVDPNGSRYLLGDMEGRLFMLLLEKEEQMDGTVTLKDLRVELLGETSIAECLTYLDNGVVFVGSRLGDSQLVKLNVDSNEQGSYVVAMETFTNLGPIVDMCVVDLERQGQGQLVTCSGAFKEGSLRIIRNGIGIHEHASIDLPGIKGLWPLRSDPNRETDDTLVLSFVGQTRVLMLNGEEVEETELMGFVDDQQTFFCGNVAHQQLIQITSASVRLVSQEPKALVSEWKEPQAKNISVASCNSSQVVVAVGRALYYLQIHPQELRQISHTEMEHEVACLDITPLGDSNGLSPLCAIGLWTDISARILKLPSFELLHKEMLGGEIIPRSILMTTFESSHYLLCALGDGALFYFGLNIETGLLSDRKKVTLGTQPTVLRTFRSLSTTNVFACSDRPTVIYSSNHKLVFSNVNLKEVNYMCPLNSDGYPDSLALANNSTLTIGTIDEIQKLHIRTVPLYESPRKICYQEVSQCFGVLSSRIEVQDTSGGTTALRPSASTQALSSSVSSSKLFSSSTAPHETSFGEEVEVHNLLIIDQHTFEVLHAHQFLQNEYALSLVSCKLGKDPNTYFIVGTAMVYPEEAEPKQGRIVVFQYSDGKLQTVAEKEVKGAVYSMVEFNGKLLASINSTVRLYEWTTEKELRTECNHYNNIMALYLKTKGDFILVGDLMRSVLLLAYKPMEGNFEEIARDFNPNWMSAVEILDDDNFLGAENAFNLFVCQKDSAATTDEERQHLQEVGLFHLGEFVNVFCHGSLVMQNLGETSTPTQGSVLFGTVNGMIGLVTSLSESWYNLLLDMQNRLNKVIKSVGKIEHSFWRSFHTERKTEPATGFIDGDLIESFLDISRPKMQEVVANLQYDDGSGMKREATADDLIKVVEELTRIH
# assay_name: Helios Cellular Degradation Assay (flow cytometry, Helios-PE antibody staining, 72 h)
# Format: cell-based
# conditions: Jurkat cells, 72 h incubation, flow cytometry
# log10(DC50) values compiled below
Please interpret these as log10 of DC50 where DC50 is in nM.

                                   compound  recorded_value
0  CC1CC(NCc2ccnc(-c3ccc4c(c3)CN(C3CCC(=O)NC3=O)C4=O)c2)CCO1 (centres unmarked) [Example 126]            1.91
1  CNCc1ccnc(-c2ccc3c(c2)CN(C2CCC(=O)NC2=O)C3=O)c1 (centres unmarked)            1.83
2  CN(Cc1ccnc(-c2ccc3c(c2)CN(C2CCC(=O)NC2=O)C3=O)c1)CC1CC1 (centres unmarked)            1.86

Lookup: log10(DC50) lookup needed for O=C1CCC(N2Cc3cc(-c4cc(CNCC5(O)CCCCC5)ccn4)ccc3C2=O)C(=O)N1 (centres unmarked) , thanks.
Found: 1.76

Lookup: // returns reported log10(DC50) for input O=C1CCC(N2Cc3cc(-c4cc(CN[C@H](CCO)c5ccccc5)ccn4)ccc3C2=O)C(=O)N1 (some centres unmarked)
Found: 1.15

Lookup: Consider the compound NC(=O)CCNCc1ccnc(-c2ccc3c(c2)CN(C2CCC(=O)NC2=O)C3=O)c1 (centres unmarked) and give its measured log10(DC50).
Found: 2.42

* * *

A collection of compounds and their measured log10(DC50)
# tested_on: Helios (Homo sapiens, UniProt Q96SW2+Q9UKS7)
# Construct: fluorescently labelled antibodies against Helios and Ikaros; endogenous in cells; host or cells: Jurkat cells
# assay_name: Helios Cellular Degradation Assay (flow cytometry, Helios-PE antibody staining, 72 h)
# Type: cell-based
# conditions: Jurkat cells, 72 h incubation, flow cytometry
Values below are the log10 of the recorded DC50, with nM as the unit.

For orientation, consider the following solved cases.
>>> df
                                   compound  measured_parameter  recorded_value
0  CC1CN(Cc2ccnc(-c3ccc4c(c3)CN(C3CCC(=O)NC3=O)C4=O)c2)C1 (centres unmarked)         log10(DC50)            1.23
1  O=C1CCC(N2Cc3cc(-c4cc(CN5CCC5c5ccccc5)c(Cl)cn4)ccc3C2=O)C(=O)N1 (centres unmarked)         log10(DC50)            1.38
2  O=C1CCC(N2Cc3cc(-c4cc(CN5CCC(c6ccccc6)CC5)ccn4)ccc3C2=O)C(=O)N1 (centres unmarked)         log10(DC50)            1.66
3  CC(C)CCN(C)Cc1ccnc(-c2ccc3c(c2)CN(C2CCC(=O)NC2=O)C3=O)c1 (centres unmarked)         log10(DC50)            2.55

Attention now turns to another entry.
Lookup: Can you share its log10(DC50)? I mean this compound: C[C@@H](NCc1ccnc(-c2ccc3c(c2)CN(C2CCC(=O)NC2=O)C3=O)c1)c1ccccc1 (some centres unmarked)
Found: 1.15

* * *

# tested_on: Helios (Homo sapiens, UniProt Q96SW2+Q9UKS7)
# Construct: fluorescently labelled antibodies against Helios and Ikaros; endogenous in cells; host or cells: Jurkat cells
# assay_name: Helios Cellular Degradation Assay (flow cytometry, Helios-PE antibody staining, 72 h)
# Assay type: cell-based
# conditions: Jurkat cells, 72 h incubation, flow cytometry
Each entry below carries its recorded log10(DC50).
Heads up, the numbers here are log10 of DC50 in nM units.

>>> df
                                   compound  measured_parameter  recorded_value
0  CCOC1CN(Cc2ccnc(-c3ccc4c(c3)CN(C3CCC(=O)NC3=O)C4=O)c2)C1 (stereo not shown) [Example 198]         log10(DC50)            1.62
1  O=C1CCC(N2Cc3cc(-c4cc(CN5CCOCC5)ccn4)ccc3C2=O)C(=O)N1 (stereo not shown) [Example 166]         log10(DC50)            3.90
2  O=C1CCC(N2Cc3cc(-c4cc(CNCCc5ccc(O)cc5)ccn4)ccc3C2=O)C(=O)N1 (stereo not shown) [Example 96]         log10(DC50)            1.28

Lookup: Bench note: what log10(DC50) did O=C1CCC(N2Cc3cc(-c4cc(CN5CCC6CCCC65)ccn4)ccc3C2=O)C(=O)N1 (stereo not shown) [Example 60] show?
Found: 2.74

Lookup: Data request, read-out log10(DC50), for O=C1CCC(N2Cc3cc(-c4cc(CNC5(C6CC6)CCC5)ccn4)ccc3C2=O)C(=O)N1 (stereo not shown) [Example 77]
Found: 1.08

* * *

Below, each entry is listed with its recorded Dmax.
# tested_on: Ikaros (Homo sapiens)
# Construct: fluorescently labelled antibodies against Helios and Ikaros; endogenous in cells; host or cells: Jurkat cells
# Sequence (Q96SW2 whole entry partner): as the sequence (Q96SW2 whole entry) above
# Sequence (Q16531 whole entry partner): as the sequence (Q16531 whole entry partner) above
# Sequence (Q13422 whole entry): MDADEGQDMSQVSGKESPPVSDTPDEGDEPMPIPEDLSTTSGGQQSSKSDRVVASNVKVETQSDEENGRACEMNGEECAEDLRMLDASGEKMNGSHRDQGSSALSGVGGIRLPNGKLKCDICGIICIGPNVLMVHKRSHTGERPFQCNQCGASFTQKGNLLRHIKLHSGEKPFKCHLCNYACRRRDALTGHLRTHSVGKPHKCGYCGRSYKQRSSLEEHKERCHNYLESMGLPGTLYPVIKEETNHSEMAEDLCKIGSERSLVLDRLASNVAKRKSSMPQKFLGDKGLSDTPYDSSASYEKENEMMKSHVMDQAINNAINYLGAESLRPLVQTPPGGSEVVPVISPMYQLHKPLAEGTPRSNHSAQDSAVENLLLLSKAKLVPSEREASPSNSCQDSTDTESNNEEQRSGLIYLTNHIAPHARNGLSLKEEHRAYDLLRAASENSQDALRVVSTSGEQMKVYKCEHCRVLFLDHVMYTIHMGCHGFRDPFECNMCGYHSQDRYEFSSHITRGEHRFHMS
# assay_name: Helios Cellular Degradation Assay, Ikaros readout (flow cytometry, Ikaros-Alexa488 antibody staining, 72 h)
# Type: cell-based
# conditions: Jurkat, Jurkat cells, 72 h incubation, flow cytometry; read-out: Ikaros Dmax
Give the value, in units of %, as a plain number.

>>> print(df.to_string())
                                   molecule  unit_abbrev  recorded_value
0  COC(=O)c1ccc(CN(C)Cc2ccnc(-c3ccc4c(c3)CN(C3CCC(=O)NC3=O)C4=O)c2)cc1 (centres unmarked) [Example 153]            %               7
1  O=C1CCC(N2Cc3cc(-c4cc(CNC5CC5)ccn4)ccc3C2=O)C(=O)N1 (centres unmarked) [Example 109]            %              15
2  O=C1CCC(N2Cc3cc(-c4cc(CN5CCCC5)ccn4)ccc3C2=O)C(=O)N1 (centres unmarked) [Example 8]            %              18
3  CN(CC(=O)N(C)C)Cc1ccnc(-c2ccc3c(c2)CN(C2CCC(=O)NC2=O)C3=O)c1 (centres unmarked) [Example 34]            %               9
4  O=C1CCC(N2Cc3cc(-c4nccc(CN5CC(c6ccccc6)C5)c4F)ccc3C2=O)C(=O)N1 (centres unmarked) [Example 191]            %               3
5  CN(Cc1ccnc(-c2ccc3c(c2)CN(C2CCC(=O)NC2=O)C3=O)c1)CC1CCCCC1 (centres unmarked) [Example 59]            %              20
6  CC1CCN1Cc1ccnc(-c2ccc3c(c2)CN(C2CCC(=O)NC2=O)C3=O)c1 (centres unmarked) [Example 46]            %               6

Attention now turns to another entry.
Lookup: # get_value(readout= Dmax, system= Ikaros (Homo sapiens)) for CN(Cc1ccnc(-c2ccc3c(c2)CN(C2CCC(=O)NC2=O)C3=O)c1)Cc1cccc2cccnc12 (centres unmarked) [Example 155]
Found: 0

* * *

# tested_on: Helios (Homo sapiens, UniProt Q96SW2+Q9UKS7)
# Construct: fluorescently labelled antibodies against Helios and Ikaros; endogenous in cells; host or cells: Jurkat cells
# assay_name: Helios Cellular Degradation Assay (flow cytometry, Helios-PE antibody staining, 72 h)
# Format: cell-based
# conditions: Jurkat cells, 72 h incubation, flow cytometry
measured_parameter: DC50 (nM)
Note: unit nM is implicit; provide only the numeric part.

Worked set:
>>> print(df.to_string())
                                   compound                                 tested_on  measured_parameter  recorded_value
0  CCCN(Cc1ccnc(-c2ccc3c(c2)CN(C2CCC(=O)NC2=O)C3=O)c1)CC1CC1 (stereo not shown) [Example 10]  Helios (Homo sapiens, UniProt Q96SW2+Q9UKS7)                DC50             183
1  CC(C)OC1CN(Cc2ccnc(-c3ccc4c(c3)CN(C3CCC(=O)NC3=O)C4=O)c2)C1 (stereo not shown) [Example 130]  Helios (Homo sapiens, UniProt Q96SW2+Q9UKS7)                DC50             244

Lookup: API: value(readout=DC50, system=Helios (Homo sapiens, UniProt Q96SW2+Q9UKS7)) for record Cc1ccccc1CNCc1ccnc(-c2ccc3c(c2)CN(C2CCC(=O)NC2=O)C3=O)c1 (stereo not shown) [Example 56]
Found: 13

Lookup: Enter reported DC50 observed with Helios (Homo sapiens, UniProt Q96SW2+Q9UKS7) for CCN(CC)Cc1ccnc(-c2ccc3c(c2)CN(C2CCC(=O)NC2=O)C3=O)c1 (stereo not shown) [Example 50]
Found: 22

Lookup: Request - read-out DC50 | tested on Helios (Homo sapiens, UniProt Q96SW2+Q9UKS7) | compound CC1CCC(C)N1Cc1ccnc(-c2ccc3c(c2)CN(C2CCC(=O)NC2=O)C3=O)c1 (stereo not shown) [Example 119]
Found: 2360

Lookup: Form entry - test system: Helios (Homo sapiens, UniProt Q96SW2+Q9UKS7); read-out: DC50; compound: COC(=O)CCNCc1ccnc(-c2ccc3c(c2)CN(C2CCC(=O)NC2=O)C3=O)c1 (stereo not shown) [Example 112]
Found: 921

Lookup: Notebook entry, Helios (Homo sapiens, UniProt Q96SW2+Q9UKS7) assay: DC50 of CN(Cc1cccc(C(F)(F)F)c1)Cc1ccnc(-c2ccc3c(c2)CN(C2CCC(=O)NC2=O)C3=O)c1 (stereo not shown) [Example 148] = ?
Found: 238

Lookup: Query DC50 on Helios (Homo sapiens, UniProt Q96SW2+Q9UKS7) for CC(CO)N(C)Cc1ccnc(-c2ccc3c(c2)CN(C2CCC(=O)NC2=O)C3=O)c1 (stereo not shown) [Example 181]
Found: 499

Lookup: Give Helios (Homo sapiens, UniProt Q96SW2+Q9UKS7) DC50 for CC(C)CCNCc1ccnc(-c2ccc3c(c2)CN(C2CCC(=O)NC2=O)C3=O)c1 (stereo not shown) [Example 97]
Found: 8
